- System: rat heart
- assaySummary: Coronary blood flow (PCS2A): isolated perfused heart
- experimentalSetup: heart rate, isolated perfused rat heart; read-out: PCS2A HR ED50
pEC50: −log10 of the molar value.
pEC50 values, listed per item

Some molecules with recorded pEC50:
{"columns": ["molecule", "pEC50"],
 "data": [
  ["OC[C@H]1O[C@@H](n2cnc3c(NCC(c4ccccc4)c4ccc(Cl)cc4)ncnc32)[C@H](O)[C@@H]1O (stereo partly shown) [Example 15]", "< 5.52"],
  ["OC[C@H]1O[C@@H](n2cnc3c(NCC(c4ccc(Cl)cc4)c4ccc(Cl)cc4)ncnc32)[C@H](O)[C@@H]1O [Example 17]", "< 5.52"],
  ["OC[C@H]1O[C@@H](n2cnc3c(NC(c4ccccc4)c4ccccc4)ncnc32)[C@H](O)[C@@H]1O [Example 5, N^6-Diphenylmethyladenosine, reference compound]", "< 5.52"]
]}

Q: Reported pEC50 for rat heart, given OC[C@H]1O[C@@H](n2cnc3c(NCC(c4ccccc4)c4ccc(F)cc4)nc(Cl)nc32)[C@H](O)[C@@H]1O (stereo partly shown) [Example 11] ?
Ans: < 5.52

Q: Again, but for CC(CNc1nc(N)nc2c1ncn2[C@@H]1O[C@H](CO)[C@@H](O)[C@H]1O)(c1ccccc1)c1ccccc1 [Example 21, N'-(2,2-Diphenylpropyl)-2-aminoadenosine]
Ans: < 5.00

Q: Again, but for OC[C@H]1O[C@@H](n2cnc3c(NCCCC(c4ccccc4)c4ccccc4)ncnc32)[C@H](O)[C@@H]1O [Example 6, N^6-(4,4-Diphenylbutyl)adenosine]
Ans: < 6.00

Q: Again, but for Nc1nc(NCC(O)(c2ccccc2)c2ccccc2)c2ncn([C@@H]3O[C@H](CO)[C@@H](O)[C@H]3O)c2n1 [Example 23]
Ans: ~6.00
